These measurements were taken from PubChem BioAssay AID1159580.

Hi there, I'd appreciate the recorded normalized growth for every entry that follows.
# EXPERIMENT NOTES: chemical genetic growth profiling, strain panel (AID 1159580);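 further: tested at 20 µM; growth read once vehicle control cultures reached saturation at 30 °C; 1 = growth at the plate median or of vehicle wells; lower values mean less growth of the strain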
# RUN CONDITIONS: S. cerevisiae deletion strains, growth OD, locus YPR106W, strain ISR1, active compounds read low
Among all 5,500 compounds or so, about 2,000 (36%) were called active. Not shown: some 18% with an inconclusive outcome. The list shows a part of the results.
Reply with just the number.

[ask] State the recorded normalized growth for this entry: O=C(NNc1cc(C(F)(F)F)cc(C(F)(F)F)c1)c1cnc2n(c1=O)CCS2
[reply] 0.995

[ask] Try this molecule next: O=C1Nc2ccccc2/C1=C\c1c[nH]c2ccccc12
[reply] 0.863

[ask] Param item: O=C(O/N=C1/CCCc2[nH]c3ccccc3c21)c1ccc(Cl)cc1Cl
[reply] 0.979

[ask] Another molecule to look at: CCn1nc(C)cc1C(=O)Sc1cccc(Br)c1
[reply] 0.97

[ask] Now the same for FC(F)(F)Oc1ccc(OCc2n[nH]c(=S)n2-c2ccc(Cl)cc2)cc1
[reply] 0.996

[ask] Next: CCOC(=O)NC(=S)Nc1ccc(C(C)(C)C)cc1NC(=S)NC(=O)OCC
[reply] 0.986

[ask] Again, but for O=c1cc(CSc2ccc(Cl)cc2)c2ccc(O)cc2o1
[reply] 0.952

[ask] Same for COc1ccccc1N1CCN(C(=O)C(C)c2ccc(CC(C)C)cc2)CC1 (stereo unspecified)
[reply] 0.961

[ask] Another: O=C(O/N=C1/CCCc2[nH]c3ccccc3c21)C1CCCCC1
[reply] 0.962

[ask] Note, next up: O=S(=O)(c1cc(Cl)ccc1Cl)N1CCc2ccccc2C1
[reply] 0.986

[ask] // repeat for FC(F)(F)Sc1ccc(OCc2n[nH]c(=S)n2-c2ccccc2)cc1 and report
[reply] 0.979

====

Would you mind telling me the reported normalized growth of each entry?
# EXPERIMENT NOTES: chemical genetic growth profiling, strain panel (AID 1159580);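 further: tested at 20 µM; growth read once vehicle control cultures reached saturation at 30 °C; 1 = growth at the plate median or of vehicle wells; lower values mean less growth of the strain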
# RUN CONDITIONS: S. cerevisiae deletion strains, growth OD, locus YJL134W, strain LCB3, active compounds read low
The campaign covered roughly 5,500 compounds. About 2,000 (36%) were called active. Roughly 18% stayed inconclusive and do not appear here. Some of the results follow.
Could you keep your reply to the number by itself?

[ask] Query: normalized growth; subject: Cc1ccccc1N1C(=O)c2cc(S(N)(=O)=O)c(Cl)cc2NC1C (stereo not given)
[reply] 0.986

[ask] Do the same for CC1Cc2ccccc2N1NC(=O)c1ccc(Cl)c(S(N)(=O)=O)c1 (stereo not given) please
[reply] 1.01

[ask] Would you kindly repeat that for CC1(C)S[C@@H]2[C@H](NC(=O)C(C(=O)O)c3ccccc3)C(=O)N2[C@H]1C(=O)O (stereo not given in full) ?
[reply] 0.992

[ask] Do the same for CO[C@@H]1[C@@H](OC(N)=O)[C@@H](O)[C@H](Oc2ccc3c(O)c(NC(=O)c4ccc(O)c(CC=C(C)C)c4)c(=O)oc3c2C)OC1(C)C please
[reply] 1.01

[ask] Quick one: CC(C)Nc1nc(Cl)nc(NC(C)C)n1
[reply] 0.993

====

# EXPERIMENT NOTES: chemical genetic growth profiling, strain panel (AID 1159580);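 further: tested at 20 µM; growth read once vehicle control cultures reached saturation at 30 °C; 1 = growth at the plate median or of vehicle wells; lower values mean less growth of the strain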
# RUN CONDITIONS: S. cerevisiae deletion strains, growth OD, locus YKR001C, strain vps1, active compounds read low
Among all 5,500 compounds or so, about 2,000 (36%) were called active. Inconclusive results (about 18%) are left out. This is one part of the list.
VALUE TYPE: normalized growth
I'd appreciate a reply containing only the number, no unit.

[ask] normalized growth lookup needed for C[C@H]1O[C@@H](O[C@H]2[C@@H](O)C[C@H](O[C@H]3[C@@H](O)C[C@H](O[C@H]4CC[C@]5(C)C6C[C@@H](O)[C@]7(C)[C@@H](C8=CC(=O)OC8)CC[C@]7(O)C6CC[C@@H]5C4)O[C@@H]3C)O[C@@H]2C)C[C@H](O)[C@@H]1O (stereo partly drawn) , thanks.
[reply] 0.971

[ask] Input COc1c(O)cc2c(c1O)[C@H]1O[C@H](CO)[C@@H](O)[C@H](O)[C@@H]1OC2=O
[reply] 1.01

[ask] Consider next the compound CC(=O)OC1CC[C@@]2(C)C(CCC3C2CC[C@]2(C)C(C4=CC(=O)OC4)C(OC(C)=O)CC32O)C1 (stereo partly drawn) in the same way.
[reply] 1.01
